Target: T1, human SIRPα v3-Fc (SIRPα3 extracellular domain fused to human IGHG1_Fc) (human, UniProt P78324 31-373; P0DOX5 223-449 = IgG part)
T1 construct: as m38; also called V3 (e.g. SIRPα3)
Assay: BLI Octet, antigen-Fc on biosensor;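 also: antigen captured on the biosensor tip and then immersed in solutions of the test antibodies, which act as the analyte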
quantity.name: koff (s⁻¹)
Give a bare numeral; the unit s⁻¹ is implied.

Here is how some binders turned out for koff.
| binder | koff [s⁻¹] |
| --- | --- |
| SIRPAB-9 (antibody, human IgG1, kappa, V domains shown) VH: QVQLVQSGAEVKKPGASVKVSCKASGYTFGGYGISWVRQAPGQGLEWMGWISAYGGETNYAQKLQGRVTMTTDTSTSTAYMELRSLRSDDTAVYYCAREAGSSWYDFDLWGRGTLVTVSS VL: DIQMTQSPSSVSASVGDRVTITCRASQGISSWLAWYQQKPGKAPKLLIYAASNLQSGVPSRFSGSGSGTDFTLTISSLQPEDFATYYCQQGASFPITFGGGTKVEIKR | 0.000515 |
| SIRPAB-10 (antibody, human IgG1, kappa, V domains shown) VH: QVQLVQSGAEVKKPGASVKVSCKASGYTFTGYPISWVRQAPGQGLEWMGWIYAYGGNTNYAQKLQGRVTMTTDTSTSTAYMELRSLRSDDTAVYYCAREAGSSWYDFDLWGRGTLVTVSS VL: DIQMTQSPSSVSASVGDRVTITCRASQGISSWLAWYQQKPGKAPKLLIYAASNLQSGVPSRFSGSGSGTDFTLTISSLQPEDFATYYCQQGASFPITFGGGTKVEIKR | 0.000261 |

Next binder, koff to be filled in.
# query: koff of entry SIRPAB-7 (antibody, human IgG1, kappa, V domains shown) VH: QVQLQESGPGLVKPSQTLSLTCTVSGGSISSGEYYWEWIRQHPGKGLEWIGYIYSSGFTYYNPSLKSRVTISVDTSKNQFSLKLSSVTAADTAVYYCAREGLDGSYGSSAWGQGTLVTVSS VL: DIQLTQSPSSLSASVGDRVTITCQASQDISNYLNWYQQKPGKAPKLLIYDASNLETGVPSRFSGSGSGTDFTFTISSLQPEDIATYYCQQFAYLPYTFGGGTKVEIKR 0.00718
